tgt: T1, human EphA3 (Homo sapiens, UniProt P29320)
T1 construct: a protein of the extracellular region of each human Eph receptor fused with the SEAP protein and the His tag; made in house; host or cells: Expi293F cells (culture supernatant)
T1 sequence (P29320 21-541 limits assumed): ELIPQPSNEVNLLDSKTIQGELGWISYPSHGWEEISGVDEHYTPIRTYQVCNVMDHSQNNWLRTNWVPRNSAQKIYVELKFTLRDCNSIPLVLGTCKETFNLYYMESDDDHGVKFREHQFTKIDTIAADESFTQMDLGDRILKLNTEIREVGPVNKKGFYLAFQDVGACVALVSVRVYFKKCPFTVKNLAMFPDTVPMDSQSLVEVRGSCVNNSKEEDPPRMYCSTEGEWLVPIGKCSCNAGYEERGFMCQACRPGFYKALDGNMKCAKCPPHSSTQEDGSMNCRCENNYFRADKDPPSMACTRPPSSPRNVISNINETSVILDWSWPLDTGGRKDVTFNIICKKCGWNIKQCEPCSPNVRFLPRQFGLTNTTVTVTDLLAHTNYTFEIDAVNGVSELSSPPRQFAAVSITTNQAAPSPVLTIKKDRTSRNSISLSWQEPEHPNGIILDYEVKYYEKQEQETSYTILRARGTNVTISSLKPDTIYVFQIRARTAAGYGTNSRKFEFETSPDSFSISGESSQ
protocolSummary: Selectivity ELISA of humanized antibodies for human Eph receptor
Format: binding
studyConditions: coated protein 1 nM
Documented hEphA3-SEAP-: absorbance at 450 nm, percentage with respect to hEphA4-SEAP-His as 100% across a set of molecules
# output: bare number, implied unit %

Illustrative cases are given below, each with its answer.
151 (antibody, V domains shown, synthetic humanized antibody heavy chain variable region sequence; synthetic humanized antibody light chain variable region sequence) VH: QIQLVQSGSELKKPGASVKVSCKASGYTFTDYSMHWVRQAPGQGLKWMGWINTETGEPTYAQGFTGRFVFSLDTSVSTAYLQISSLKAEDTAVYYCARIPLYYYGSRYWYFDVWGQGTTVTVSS VL: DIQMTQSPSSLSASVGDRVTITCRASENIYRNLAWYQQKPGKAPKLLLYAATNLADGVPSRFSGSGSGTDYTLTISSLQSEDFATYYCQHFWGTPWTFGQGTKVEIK :: 6.9
77 (antibody, V domains shown, synthetic humanized antibody heavy chain variable region sequence; synthetic humanized antibody light chain variable region sequence) VH: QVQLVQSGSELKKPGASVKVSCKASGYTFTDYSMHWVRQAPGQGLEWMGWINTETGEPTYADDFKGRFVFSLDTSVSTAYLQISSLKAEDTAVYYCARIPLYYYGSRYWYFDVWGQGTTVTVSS VL: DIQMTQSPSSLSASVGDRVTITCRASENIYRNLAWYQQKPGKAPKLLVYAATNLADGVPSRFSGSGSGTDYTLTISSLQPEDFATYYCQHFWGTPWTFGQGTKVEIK :: 4.5
86 (antibody, V domains shown, constant regions without entry; synthetic humanized antibody light chain variable region sequence; synthetic humanized antibody heavy chain variable region sequence) VL: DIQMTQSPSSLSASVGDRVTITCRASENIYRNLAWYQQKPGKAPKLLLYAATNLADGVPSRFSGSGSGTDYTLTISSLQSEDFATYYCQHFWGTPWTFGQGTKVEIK VH: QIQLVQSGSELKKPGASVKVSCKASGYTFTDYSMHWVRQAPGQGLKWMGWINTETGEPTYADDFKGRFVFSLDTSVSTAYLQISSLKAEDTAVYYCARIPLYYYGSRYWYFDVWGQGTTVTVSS :: 5.8

Please find the next molecule below.
Field request: hEphA3-SEAP-: absorbance at 450 nm, percentage with respect to hEphA4-SEAP-His as 100% | item: 87 (antibody, V domains shown, constant regions without entry; synthetic humanized antibody light chain variable region sequence; synthetic humanized antibody heavy chain variable region sequence) VL: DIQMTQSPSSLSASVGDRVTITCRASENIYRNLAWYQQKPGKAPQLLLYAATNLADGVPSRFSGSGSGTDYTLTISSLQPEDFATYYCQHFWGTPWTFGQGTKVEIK VH: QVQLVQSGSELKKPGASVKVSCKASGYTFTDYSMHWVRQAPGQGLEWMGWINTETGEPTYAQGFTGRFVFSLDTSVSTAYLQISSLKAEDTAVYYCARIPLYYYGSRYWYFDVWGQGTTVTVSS
5.5
